Molecular target: 5-hydroxytryptamine receptor 1A (Rattus norvegicus) (UniProt P19327)
Sequence (P19327 whole entry): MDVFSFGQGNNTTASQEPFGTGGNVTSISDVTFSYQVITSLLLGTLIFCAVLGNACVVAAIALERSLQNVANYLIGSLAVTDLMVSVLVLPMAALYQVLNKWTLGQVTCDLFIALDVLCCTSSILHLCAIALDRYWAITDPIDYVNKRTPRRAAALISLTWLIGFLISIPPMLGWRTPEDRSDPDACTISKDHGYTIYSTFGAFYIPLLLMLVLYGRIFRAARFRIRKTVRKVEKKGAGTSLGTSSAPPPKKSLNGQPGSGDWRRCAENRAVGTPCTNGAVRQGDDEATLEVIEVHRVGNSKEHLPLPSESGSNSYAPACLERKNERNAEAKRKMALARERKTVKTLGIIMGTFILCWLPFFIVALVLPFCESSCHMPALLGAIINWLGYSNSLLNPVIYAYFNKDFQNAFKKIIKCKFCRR
Experiment: Inhibitory activity against 5-hydroxytryptamine 1A receptor of rat hippocampal tissue at 1 uM
Assay type: tissue-based
Settings: Hippocampus
Decide using inhibition: a value greater than or equal to 60% is Criterion met, a smaller one is Criterion not met.

| smiles representation | category |
| --- | --- |
| C[C@@]12C[C@@H]3C[C@@H](CC(CC(=O)OCCN4CCN(c5ncccn5)CC4)(C3)C1)C2 | Criterion met |
| C[C@@]12C[C@@H]3C[C@@H](CC(CC(=O)OCCCN4CCN(c5cccc(Cl)c5)CC4)(C3)C1)C2 | Criterion not met |
| O=C(OCCN1CCN(C(c2ccc(F)cc2)c2ccc(F)cc2)CC1)C12C[C@H]3C[C@@H](C1)C[C@@H](C2)C3 | Criterion not met |
| C[C@@]12C[C@@H]3C[C@@H](CC(CC(=O)OCCN4CCN(c5cccc(Cl)c5)CC4)(C3)C1)C2 | Criterion not met |
| O=C(OCCCN1CCN(Cc2ccccc2)CC1)C12C[C@H]3C[C@@H](C1)C[C@@H](C2)C3 | Criterion met |
| O=C(NC12C[C@H]3C[C@@H](C1)C[C@@H](C2)C3)N1CCN(c2cccc(Cl)c2)CC1 | Criterion not met |
| O=C(NC12C[C@H]3C[C@@H](C1)C[C@@H](C2)C3)N1CCN(c2ncccn2)CC1 | Criterion not met |
| CC(C)(CN1CCN(Cc2ccccc2)CC1)NC(=O)C12C[C@H]3C[C@@H](C1)C[C@@H](C2)C3 | Criterion not met |
| O=C(OCCCN1CCN(c2cccc(Cl)c2)CC1)C12C[C@H]3C[C@@H](C1)C[C@@H](C2)C3 | Criterion met |
| O=C(NCCN1CCN(c2cccc(C(F)(F)F)c2)CC1)C12CC3CC(CC1C3)C2 | Criterion met |
| C[C@@H](CN1CCN(c2ncccn2)CC1)NC(=O)C12C[C@H]3C[C@@H](C1)C[C@@H](C2)C3 | Criterion not met |
| CC(C)N(CCN1CCN(c2ncccn2)CC1)C(=O)C12C[C@H]3C[C@@H](C1)C[C@@H](C2)C3 | Criterion not met |
| O=C(OCCCN1CCN(c2cccc(C(F)(F)F)c2)CC1)C12C[C@H]3C[C@@H](C1)C[C@@H](C2)C3 | Criterion met |
| C[C@@]12C[C@@H]3C[C@@H](CC(CC(=O)NCCCN4CCN(c5cccc(Cl)c5)CC4)(C3)C1)C2 | Criterion met |
| C[C@@]12C[C@@H]3C[C@@H](CC(CC(=O)OCCN4CCN(c5cccc(C(F)(F)F)c5)CC4)(C3)C1)C2 | Criterion not met |
| COc1ccccc1N1CCN(CCOC(=O)CC23C[C@H]4C[C@@H](C2)C[C@](C)(C4)C3)CC1 | Criterion met |
| O=C(OCCCN1CCN(c2ncccn2)CC1)C12C[C@H]3C[C@@H](C1)C[C@@H](C2)C3 | Criterion met |
